Entry source: PubChem BioAssay (NCI)

Some molecules, each annotated with its measured growth inhibition.
# assayComment: NCI Yeast Anticancer Drug Screen. Data for the sgs1 mgt1 strain (AID 161);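 further: 0% = growth of cultures given vehicle only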
# conditionInfo: S. cerevisiae sgs1 mgt1 strain, at 50.0 µM, active compounds read high
The panel holds about 79,000 compounds, 15% with a hit somewhere; the sample as a whole holds those more often.
Give a bare numeral; the unit % is implied.

• Cc1ccc(C(CS(=O)(=O)c2ccc(C)cc2)c2ccccc2)cc1 (stereo unspecified) = -7.8
• C[CH2][Ge]([CH2]C)[CH2]C.C[CH2][Ge]([CH2]C)[CH2]C = -2.45
• CC(=O)NC(Cc1cccc2ccccc12)C(=O)O (stereo unspecified) = -0.05
• O=C(CCl)OCCN(CCOC(=O)CCl)Cc1coc2ccccc2c1=O = -4.85
• CC1(C(=O)Sc2ccccc2)OC1(C)c1ccccc1 (stereo unspecified) = 4.85

Prompt: Fill blank: measured growth inhibition of the molecule Nc1ccn(C2OC(COC(=O)C34CC5CC(CC(C5)C3)C4)C(O)C2O)c(=O)n1 (stereo unspecified) is ____.
Response: -35.5
